experiment: NCI Yeast Anticancer Drug Screen. Data for the rad50 strain (AID 155);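 further: 0% = growth of vehicle-only cultures of the same strain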; conditions: S. cerevisiae rad50 strain growth inhibition; at 50.0 µM; hits give high values
This is part of a sample that, as a whole, favours compounds with a hit. Of some 79,000 tested, about 15% had one in any assay.
Provide the recorded growth inhibition for the entries that follow.
Report as a plain number; the unit % is understood.

[in] Entry CCOc1c(F)ccc(F)c1-c1c(F)ccc(F)c1OCC : reported growth inhibition = ?
[out] -7.5

[in] Queued: CC1CCC(=O)N1c1ccc(N)cc1 (configuration not stated)
[out] -19

[in] Queued: Cc1ccnc(NC(NC(=O)c2ccccc2)(C(F)(F)F)C(F)(F)F)c1
[out] 4.75

[in] Queued: COc1ccc2nccc(Cl)c2c1
[out] 12.2

[in] Queued: CCOc1ccccc1NC(=O)c1ccc(Cl)cc1
[out] -9.8

[in] Queued: Cn1c2ccccc2c2nc3ccccc3c(Cl)c21
[out] -43.5

[in] Queued: O=C1CCCCC1CO (configuration not stated)
[out] -0.1

[in] Queued: OC(c1ccccc1)(c1ccccc1)c1ccccc1CNc1ccccc1
[out] 45.5

[in] Queued: CSC1=Nc2ccccc2N=C(c2ccccc2)C1
[out] 41.9

[in] Queued: c1ccc(-c2cc(-c3ccncc3)cc(-c3ccncc3)n2)cc1
[out] 3.85

[in] Queued: CCOc1ccccc1NC(=O)C(Br)C(Br)c1ccccc1 (configuration not stated)
[out] -1.1

[in] Queued: CCC(=O)Oc1cc(C(C)(C)C)c(OC(=O)CC)cc1C(C)(C)C
[out] 3.45

[in] Queued: COC(=O)c1ccccc1NC(=O)Nc1ccccc1
[out] 3.1

[in] Queued: S=C(Nc1ccccc1)Nc1ccccc1S
[out] -15.4

[in] Queued: CC(=O)OCC(OC(C)=O)C(OC1OC(COC(C)=O)C(OC(C)=O)C(OC(C)=O)C1OC(C)=O)C(OC(C)=O)c1cnn(-c2ccccc2)n1 (configuration not stated)
[out] -10.7

[in] Queued: O=C(N/N=C\c1coc([N+](=O)[O-])c1)N/N=C/c1ccoc1
[out] 0.75

[in] Queued: COC(=O)c1cc(=O)[nH]c(=O)[nH]1
[out] -10.6

[in] Queued: COC(=O)c1nc(=S)[nH]c(C(=O)OC)c1C(=O)/C=C/c1ccccc1
[out] 0.1

[in] Queued: Nc1ccc2ccccc2c1[N+](=O)[O-]
[out] 25.9

[in] Queued: COc1cccc(/C(Cl)=C(\C=O)c2cccc(OC)c2)c1
[out] 12.8

[in] Queued: C/C(CC(C)C)=N/NC(N)=S
[out] 14.9

[in] Queued: COc1ccc(N2C(=O)CCC2=O)cc1
[out] -7.8

[in] Queued: COC(=O)c1c(-c2ccc3c(c2)OCO3)cn(C)c1C
[out] 5.7

[in] Queued: Fc1ccccc1N=Cc1ccc(C=Nc2ccccc2F)cc1
[out] 3.85

[in] Queued: CCC1(C2C=COC=C2)NC(=O)NC1=O (configuration not stated)
[out] -14.1

[in] Queued: CCCCCCCCCCCCCCCCC1Cc2ccccc2C1
[out] -12.6

[in] Queued: C/C=C/C(=O)OCCCCCCCCCCCC
[out] -41.1

[in] Queued: Nc1ccc(Cl)c(S(=O)(=O)O)c1
[out] 21.7

[in] Queued: CCc1nc2c(N)ncnc2o1
[out] -1.45

[in] Queued: CCOC(=O)CN1CCC(C(=O)OCC)CC1
[out] 7.75

[in] Queued: CCc1ccc2c(c1)C(C)(CC)CCC2C (configuration not stated)
[out] -2.45

[in] Queued: CC(=O)OCC1OC(n2c(-c3ccc(Cl)cc3)cc(-c3ccccc3)c(C#N)c2=S)C(OC(C)=O)C(OC(C)=O)C1OC(C)=O (configuration not stated)
[out] 20.6

[in] Queued: CCOc1ccccc1NCN1C(=O)c2ccccc2C1=O
[out] -38.9

[in] Queued: COc1ccc(-c2c(C(=O)O)cc(O)c3cc(OC)c(OC)cc23)cc1OC
[out] 6.4

[in] Queued: O=C(OCc1ccccc1)C1(N2CN(C3(C(=O)OCc4ccccc4)CCCC3)CN(C3(C(=O)OCc4ccccc4)CCCC3)C2)CCCC1
[out] -8.05

[in] Queued: COC1(c2ccc(C)cc2)c2cccc3cccc(c23)C1(O)c1ccc(C)cc1 (configuration not stated)
[out] 18.6

[in] Queued: COC[C@@H](N=Cc1ccc(OC)cc1)C(C)C
[out] -12.2
